# Tested on: OVCAR-8 ovarian
# methodNotes: NCI tumour cell line growth inhibition, 48 h
Here the recorded TGI is given for each entry.

# count of solved cases: 4
[
  {
    "molecule": "CC(/C=C/c1ccc([N+](=O)[O-])o1)=N/N1CC(CN2CCOCC2)OC1=O (centres undefined)",
    "result": "35.3 µM"
  },
  {
    "molecule": "Cc1ccc(S(=O)(=O)Oc2ccc(OS(=O)(=O)c3ccc(C)cc3)c3c2C(=O)c2ccccc2C3=O)cc1",
    "result": "> 100 µM"
  },
  {
    "molecule": "Cc1ccc(S(=O)(=O)Oc2cc(S(=O)(=O)O)cc3cc(S(=O)(=O)O)cc(N)c23)cc1",
    "result": "> 100 µM"
  },
  {
    "molecule": "COc1c2c(cc3c(CCc4ccccc4)cc(=O)oc13)CCC(C)(C)O2",
    "result": "> 100 µM"
  }
]

response.value for c1ccc(-c2nn(-c3ccccc3)[n+](-c3cccc4ccccc34)n2)cc1 (field: TGI) = 54.5 µM

Lab note: measured TGI of CC1OC(OC2CC(O)C3(CO)C4C(O)CC5(C)C(C6=CC(=O)OC6)CCC5(O)C4CCC3(O)C2)C(O)C(O)C1O (centres undefined) was 0.046 µM

The molecule listed as CN(C)CCCNc1nccc(-c2c(-c3ccc(F)cc3)nn3cc(C(F)(F)F)ccc23)n1 shows TGI equal to > 25 µM

Lab book: TGI of C[C@H]1CC[C@@H]2[C@@H](C)[C@H]3[C@H](C[C@H]4[C@@H]5CC=C6C[C@@H](O)CC[C@]6(C)[C@H]5C[C@H](O)[C@]34C)N2C1 noted as > 100 µM

Notebook: N=C(N)n1[nH]c2c(c1=O)CCCC2 , TGI read as > 100 µM
